target.or.test.system: T1, human IL-18BP (human, UniProt O95998 31-194)
T1 construct: UniProt printed as 095998; also called hIL-18BP
T1 sequence: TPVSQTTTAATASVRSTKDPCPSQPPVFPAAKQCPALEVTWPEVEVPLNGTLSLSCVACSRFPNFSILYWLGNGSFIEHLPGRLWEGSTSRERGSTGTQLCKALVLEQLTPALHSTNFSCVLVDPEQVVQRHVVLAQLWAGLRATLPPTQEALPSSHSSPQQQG
experiment.description: BLI, apparent KD
experimental.endpoint: pKd
Numbers only, as −log10 of the molar value.

Below are worked cases with known answers.
SA301a LC-Q90Y (antibody, name in Kabat numbering, V domains shown, IgG1 kappa) VH: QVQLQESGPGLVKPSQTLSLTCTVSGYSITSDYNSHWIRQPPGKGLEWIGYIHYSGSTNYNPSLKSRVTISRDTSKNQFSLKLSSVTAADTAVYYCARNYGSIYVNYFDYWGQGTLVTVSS VL: EIVLTQSPATLSLSPGERATLSCSASSSVSYMYWYQQKPGQAPRPLIYRTSNLASGIPARFSGSGSGTDFTLTISSLEPEDFAVYYCQYYHSYPTFGGGTKVEIK: 8.98
SA301a LC-Y94S (antibody, V domains shown) VH: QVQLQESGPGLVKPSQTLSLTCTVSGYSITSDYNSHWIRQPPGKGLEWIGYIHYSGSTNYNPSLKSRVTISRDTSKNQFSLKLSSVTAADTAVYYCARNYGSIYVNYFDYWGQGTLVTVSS VL: EIVLTQSPATLSLSPGERATLSCSASSSVSYMYWYQQKPGQAPRPLIYRTSNLASGIPARFSGSGSGTDFTLTISSLEPEDFAVYYCQQYHSSPTFGGGTKVEIK: 9.20
SA301a LC-Q90D (antibody, name in Kabat numbering, V domains shown, IgG1 kappa) VH: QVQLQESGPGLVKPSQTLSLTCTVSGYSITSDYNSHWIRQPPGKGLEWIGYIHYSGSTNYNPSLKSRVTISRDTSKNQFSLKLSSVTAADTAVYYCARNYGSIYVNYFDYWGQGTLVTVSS VL: EIVLTQSPATLSLSPGERATLSCSASSSVSYMYWYQQKPGQAPRPLIYRTSNLASGIPARFSGSGSGTDFTLTISSLEPEDFAVYYCQDYHSYPTFGGGTKVEIK: 9.51

I need pKd for every entry listed below, if you could help.
1. SA301a LC-T96K (antibody, V domains shown) VH: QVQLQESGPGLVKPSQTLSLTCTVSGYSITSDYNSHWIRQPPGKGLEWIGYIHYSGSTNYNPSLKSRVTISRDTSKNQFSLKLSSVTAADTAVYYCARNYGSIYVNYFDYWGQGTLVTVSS VL: EIVLTQSPATLSLSPGERATLSCSASSSVSYMYWYQQKPGQAPRPLIYRTSNLASGIPARFSGSGSGTDFTLTISSLEPEDFAVYYCQQYHSYPKFGGGTKVEIK
2. SA301a LC-Y94F (antibody, V domains shown) VH: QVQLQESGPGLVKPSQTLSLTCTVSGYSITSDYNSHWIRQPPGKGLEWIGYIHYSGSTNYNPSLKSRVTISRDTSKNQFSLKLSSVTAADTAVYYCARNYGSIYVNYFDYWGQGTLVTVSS VL: EIVLTQSPATLSLSPGERATLSCSASSSVSYMYWYQQKPGQAPRPLIYRTSNLASGIPARFSGSGSGTDFTLTISSLEPEDFAVYYCQQYHSFPTFGGGTKVEIK

OUTPUT:
1. 10.30
2. 9.89
